Known CC50 of a selection of compounds
protocol: in vitro
test context: African green monkey

| smiles str | CC50 |
| --- | --- |
| O=[N+]([O-])c1ccc(N2CCN(C3CCCC3)CC2)cc1NC(c1ccccc1)c1ccccc1 | > 100 µM |
| O=[N+]([O-])c1ccc(N2CCSCC2)cc1NC(c1ccccc1)c1ccccc1 | > 100 µM |
| O=[N+]([O-])c1ccc(N2CCN(Cc3ccoc3)CC2)cc1NC(c1ccccc1)c1ccccc1 | > 200 µM |
| O=[N+]([O-])c1ccc(N2CCN(Cc3cccs3)CC2)cc1NC(c1ccccc1)c1ccccc1 | > 200 µM |
| CC(C)(C)N1CCN(c2ccc([N+](=O)[O-])c(NC(c3ccccc3)c3ccccc3)c2)CC1 | > 100 µM |
